target: human TAS2R1 (Homo sapiens); construct: expressed in transfected cells; host or cells: HEK293T-Gα16gust44; assay: Calcium imaging assay (FLIPR), HEK293T-Gα16gust44 cells transfected with human TAS2R1; format: cell-based; settings: Time 14.015 s
Sequence (Q9NYW7 whole entry): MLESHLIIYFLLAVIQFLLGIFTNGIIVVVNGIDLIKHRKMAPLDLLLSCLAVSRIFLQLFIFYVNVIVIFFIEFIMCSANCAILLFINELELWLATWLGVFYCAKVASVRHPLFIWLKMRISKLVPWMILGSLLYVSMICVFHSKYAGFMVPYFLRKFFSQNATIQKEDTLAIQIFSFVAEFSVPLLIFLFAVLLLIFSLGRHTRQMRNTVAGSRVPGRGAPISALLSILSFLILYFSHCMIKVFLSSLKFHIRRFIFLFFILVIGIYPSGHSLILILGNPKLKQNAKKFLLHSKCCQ
Measure: RLU (RLU)
Provide only the numeric value, understood in RLU.

q: What does the record list as RLU for `C[C@H](CCC(=O)O)[C@H]1CC[C@H]2[C@@H]3[C@@H](O)C[C@@H]4C[C@H](O)CC[C@]4(C)[C@H]3CC[C@]12C` ?
a: -27.1256

q: What does the record list as RLU for `C[C@H](CCC(=O)O)[C@H]1CC[C@H]2[C@@H]3[C@H](O)C[C@@H]4C[C@H](O)CC[C@]4(C)[C@H]3C[C@H](O)[C@]12C` ?
a: -19.7859

q: What does the record list as RLU for `C[C@H](CCC(=O)O)[C@H]1CC[C@H]2[C@@H]3CC[C@@H]4C[C@H](O)CC[C@]4(C)[C@H]3CC[C@]12C` ?
a: -4.132

q: What does the record list as RLU for `C[C@H](CCC(=O)O)[C@H]1CC[C@H]2[C@@H]3[C@H](O)C[C@@H]4C[C@H](O)CC[C@]4(C)[C@H]3CC[C@]12C` ?
a: 20.4897

Hello, the source for this data is paper PMC10247784, in case you need it.
